Experimental system: T1, IL-18 binding protein (IL-18BP) (UniProt O95998 31-194); further: unit not given here
T1 sequence (looked up): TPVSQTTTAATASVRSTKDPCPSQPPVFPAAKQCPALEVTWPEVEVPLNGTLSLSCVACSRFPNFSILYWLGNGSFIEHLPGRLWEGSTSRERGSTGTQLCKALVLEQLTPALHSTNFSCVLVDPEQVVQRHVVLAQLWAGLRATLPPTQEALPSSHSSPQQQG
Assay text: cell-based or functional assay
Activity, +100 nM BP, DF-5000003 overview
// keep it numeric: no unit symbol after the value

Example cases with answers are listed next.
Binder	Activity, +100 nM BP, DF-5000003
IL-18 variant G3R, E6D, D54A, S55Q, T63S, N91K, R104P (ligand) YFRKLDSKLSVIRNLNDQVLFIDQGNRPLFEDMTDSDMRDNAPRTIFIISMYKAQQPRGMAVSISVKSEKISTLSSENKIISFKEMNPPDKIKDTKSDIIFFQPSVPGHDNKMQFESSSYEGYFLASEKERDLFKLILKKEDELGDRSIMFTVQNED	0.08
IL-18 variant G3E, E6G, N91M, R104A (ligand) YFEKLGSKLSVIRNLNDQVLFIDQGNRPLFEDMTDSDMRDNAPRTIFIISMYKDSQPRGMAVTISVKSEKISTLSSENKIISFKEMNPPDMIKDTKSDIIFFQASVPGHDNKMQFESSSYEGYFLASEKERDLFKLILKKEDELGDRSIMFTVQNED	1.41

[ask] What Activity, +100 nM BP, DF-5000003 value was documented for this binder, IL-18 variant G3P, E6H, N91L (ligand) YFPKLHSKLSVIRNLNDQVLFIDQGNRPLFEDMTDSDMRDNAPRTIFIISMYKDSQPRGMAVTISVKSEKISTLSSENKIISFKEMNPPDLIKDTKSDIIFFQRSVPGHDNKMQFESSSYEGYFLASEKERDLFKLILKKEDELGDRSIMFTVQNED ?
[reply] 0.93

[ask] Data request, read-out Activity, +100 nM BP, DF-5000003, for IL-18 variant G3P, E6K, K53T, D54Y, S55V, T63I, N91I (ligand) YFPKLKSKLSVIRNLNDQVLFIDQGNRPLFEDMTDSDMRDNAPRTIFIISMYTYVQPRGMAVIISVKSEKISTLSSENKIISFKEMNPPDIIKDTKSDIIFFQRSVPGHDNKMQFESSSYEGYFLASEKERDLFKLILKKEDELGDRSIMFTVQNED
[reply] 0.11

[ask] I'd like to know its Activity, +100 nM BP, DF-5000003. The binder in question is IL-18 variant G3Q, E6H, D54N, S55I, T63S, N91V (ligand) YFQKLHSKLSVIRNLNDQVLFIDQGNRPLFEDMTDSDMRDNAPRTIFIISMYKNIQPRGMAVSISVKSEKISTLSSENKIISFKEMNPPDVIKDTKSDIIFFQRSVPGHDNKMQFESSSYEGYFLASEKERDLFKLILKKEDELGDRSIMFTVQNED
[reply] 1.43

[ask] # query: Activity, +100 nM BP, DF-5000003 of entry IL-18 variant G3Q, E6N (ligand) YFQKLNSKLSVIRNLNDQVLFIDQGNRPLFEDMTDSDMRDNAPRTIFIISMYKDSQPRGMAVTISVKSEKISTLSSENKIISFKEMNPPDNIKDTKSDIIFFQRSVPGHDNKMQFESSSYEGYFLASEKERDLFKLILKKEDELGDRSIMFTVQNED
[reply] 1.52
